# assay.details: inhibitors of mutant huntingtin aggregation, primary screen, imaging, exon1htt(103Q)mCFP cells, high-content imaging (AID 483);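 also: compound exposure lasted 3 days before fixation; percent of the per-plate median nuclei count of sample wells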
# cond: exon1htt(103Q)mCFP cell line, aggregate imaging, at 2 µM; measured here: cell count, toxicity
measurement.name: nuclei count (%)
Give bare numbers, in %.

CCOC(=O)C1/C(=N\O)CC(C)(O)C(C(=O)OCC)C1c1ccc(N(C)C)cc1 (stereo not drawn) :: 106
CCOc1ccccc1N1CCN(c2nc3ccccc3nc2C(C#N)C(=O)OC)CC1 (stereo not drawn) :: 106
CC1CCc2cc(F)cc3c(O)c(C(=O)Nc4cnccn4)c(=O)n1c23 (stereo not drawn) :: 99.3

// for each compound below, give its nuclei count
1. CC(=O)Nc1ccccc1O
2. CCc1cc2c(=O)c(-c3cscn3)coc2cc1O

1. 106
2. 59.7

// for each compound below, give its nuclei count
1. N#CCc1nc2c3c4c(sc3ncn2n1)CCCC4
2. C[C@]12CCC(=O)C=C1CC[C@@H]1[C@@H]2[C@@H](O)C[C@@]2(C)[C@H]1CC[C@]2(O)C(=O)CO
3. CC(=O)OCC(=O)[C@H]1CC[C@H]2[C@@H]3CC=C4C[C@@H](O)CC[C@]4(C)[C@H]3CC[C@]12C
4. C/C=C(/C(=C/C)c1ccc(O)cc1)c1ccc(O)cc1

1.9
63.5
99.7
112

// for each compound below, give its nuclei count
1. Cc1nn(C)cc1/C=N/O
2. O=C(O)c1cccnc1Nc1cccc(C(F)(F)F)c1

83.6
55.6

// for each compound below, give its nuclei count
1. CCN1CCN(c2cc3c(cc2F)c(=O)c(C(=O)O)cn3C2CC2)CC1
2. Cc1ncc([N+](=O)[O-])n1CC(O)CCl (stereo not drawn)
3. O=C(O)Cc1ccc(-c2ccccc2)cc1
4. Cc1ccc(S(=O)(=O)N2CCN(c3nc(C(C)C)c4c(c3C#N)CC(C)(C)OC4)CC2)cc1
5. Cn1c(=O)c2c(nc(NCc3ccc4c(c3)OCO4)n2Cc2ccccc2F)n(C)c1=O
6. Nc1nc(Cl)nc2c1ncn2[C@H]1C[C@H](O)[C@@H](CO)O1
7. COc1ccc(CNc2oc(COc3ccccc3Cl)nc2C#N)cc1
8. CN(C)CC(O)COc1ccc(-c2ccc(C#N)cc2)cc1 (stereo not drawn)

[97.3, 100, 105, 102, 50.9, 10, 81.6, 89.7]

// for each compound below, give its nuclei count
1. C/C(=N\O)C(=O)NCCCNCCCN(C)C
2. CC(=O)Nc1ccc(Oc2ccc3nc(C)[nH]c3c2)cc1
3. C[C@]12C=CC(=O)C=C1CC[C@@H]1[C@@H]2[C@@H](O)C[C@@]2(C)[C@H]1CC[C@]2(O)C(=O)COC(=O)CCC(=O)O
4. Nc1ccc2cn[nH]c2c1

109
95.6
85.8
94.8

---

# assay.details: inhibitors of E-selectin induction by TNFa, primary screen, imaging, HUVEC, immunofluorescence, MLSMR starter and 10KST1 sets (AID 487);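 also: signal is fraction of cell area covered by stained E-selectin grains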
# cond: HUVEC TNFalpha-induced E-selectin immunofluorescence imaging, at 2 µM; stronger effect = higher value
Bucketed by reported inhibition, buckets being band A (below -90%), band B (-90% to below -40%), band C (-40% or more)

Cc1ccc(-c2nnc(-c3cccc(Br)c3)o2)cc1 :: band B
O=C(CNC1=NCCC1)c1ccc2c(c1)OCCO2 :: band B
CCOC(=O)c1c(C(F)(F)C(F)(F)C(F)(F)C(F)(F)F)n[nH]c1C :: band B
CCOC(=O)c1c(C)n(C)c2ccc(OC)c(NC(=O)c3cccs3)c12 :: band C
COc1cccc(C2/C(=C(/O)c3cnn(-c4ccccc4)c3C)C(=O)C(=O)N2CCN(C)C)c1 (centres undefined) :: band A
c1ccc(-c2nc(NCC3CCCO3)c3ccccc3n2)nc1 (centres undefined) :: band A
Cc1nc2sc3c(NCc4ccco4)ncnc3c2c2c1COC(C)(C)C2 :: band B
CCN1CCN(c2nc3c(C)cccn3c(=O)c2/C=C(\C#N)S(=O)(=O)c2ccc(C)cc2)CC1 :: band A
CC1(C)Cc2c(sc3[nH]c(=S)n(Cc4ccco4)c(=O)c23)CO1 :: band B
CC1CN(C2CCN(C(=O)c3ccccc3Cl)CC2)CC(C)O1 (centres undefined) :: band A

The entry to classify is CCOC(=O)c1[nH]c2ccc(OC)cc2c1C ; which class holds it?
band C

The entry to classify is CCn1nnc(C(=O)O)c1C(=O)O ; which class holds it?
band A

The entry to classify is Clc1ccccc1CN1CCc2sccc2C1 ; which class holds it?
band C

The entry to classify is c1ccc(OCc2nn3c(-c4cccnc4)nnc3s2)cc1 ; which class holds it?
band B

The entry to classify is COC(=O)CSc1nc(C)c(C(C)=O)cc1C#N ; which class holds it?
band C
